- EXPERIMENTAL TARGET: T1, RAD52(209) (human, UniProt P43351 1-209)
- T1 sequence: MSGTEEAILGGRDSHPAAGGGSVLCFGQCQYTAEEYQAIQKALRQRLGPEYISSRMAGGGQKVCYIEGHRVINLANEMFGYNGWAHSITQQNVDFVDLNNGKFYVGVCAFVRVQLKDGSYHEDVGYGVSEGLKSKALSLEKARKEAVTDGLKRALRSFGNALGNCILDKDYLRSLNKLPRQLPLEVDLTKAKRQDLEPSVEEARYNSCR
- TEST DESCRIPTION: EMSA; 25 C; Hill 1.5 ± 0.2; EMSA: 25 mM Tris-acetate, 2 mM Mg(OAc)2, 1 mM DTT, pH 7.5, 10 nM ssDNA, 25 C 10 min or 37 C 5 min; mass photometry: 20 mM Tris-HCl, 50 mM NaCl, pH 7.5
- CONDITION SET: protein: recombinant; tags: His-tag (pET-15b); chain copies: 11
TEST READOUT: Kd (nM)
Answers are plain numbers, in nM.

I am curious: what Kd value has been reported for GCTCTAAGCCATCCGCAAAAATGACCTCTTAT (ssDNA) [32 nt] ?
169

The origin of these recorded values is paper PMC12002259.
